System: ABUTH
Experiment: Post-emergence action against ABUTH, 1.28 kg/ha
Type: in vivo, Abutilon theophrasti
Conditions: dosage 1280 g/ha, visual rating about 3 weeks after treatment vs untreated controls (100% = plants died)
Post-emergence action against ABUTH values for the compounds below.
Readout name: Post-emergence action against ABUTH (%)

>>> number("N#CCCOC(=O)COc1nn(-c2ccccc2F)c(-c2ccc(F)nc2)c1Br [VII-104]")
90
>>> number("O=C(COc1nn(-c2ccccc2F)c(-c2ccc(F)nc2)c1Br)OCC1CCOC1 (stereo not drawn) [VII-091]")
90
>>> number("COC(=O)COc1nn(-c2ccccc2)c(-c2ccc(F)nc2)c1Br [VII-018]")
90

###

Tested on: ALOMY
Experiment: Pre-emergence action at 320 g/ha against ALOMY
Assay type: in vivo, Alopecurus myosuroides
Conditions: scored visually after about 3 weeks vs untreated controls (100% = plants have died)
Pre-emergence action at 320 g/ha against ALOMY in % values for the compounds below.
Readout name: Pre-emergence action at 320 g/ha against ALOMY in %

>>> result("C[C@@H](Oc1nn(-c2ccccc2F)c(-c2cncnc2)c1Cl)C(=O)O")
"100%"
>>> result("CCOC(=O)COc1nn(-c2ccccc2C)c(-c2ccc(F)nc2)c1C(F)(F)F")
"90%"
>>> result("CCOC(=O)COc1nn(-c2ccccc2F)c(-c2ccc(F)nc2)c1C(F)F")
"80%"
>>> result("CCOC(=O)COc1nn(-c2ccccc2F)c(-c2ccc([S+](C)[O-])nc2)c1Br (stereo not drawn)")
"90%"
>>> result("COC(=O)[C@@H](C)Oc1nn(-c2cc(F)ccc2F)c(-c2cncc(F)c2)c1C#N")
"100%"
>>> result("CCOC(=O)C(C)Oc1nn(-c2ccccc2F)c(-c2ccc(F)nc2)c1Br (stereo not drawn)")
"100%"

###

Pre-emergence action at 320 g/ha against ABUTH in % values for the molecules below.
Tested on: ABUTH
Test: Pre-emergence action at 320 g/ha against ABUTH
Type: in vivo, Abutilon theophrasti
Conditions: greenhouse, scored visually after about 3 weeks vs untreated controls, 100% = plants have died, 0% = like control plants
Readout name: Pre-emergence action at 320 g/ha against ABUTH in % (%)

>>> number("C[C@@H](Oc1nn(-c2ccccc2F)c(-c2cncnc2)c1Cl)C(=O)O")
80
>>> number("COC(=O)[C@@H](C)Oc1nn(-c2ccccc2F)c(-c2cncnc2)c1Br")
80
>>> number("C[C@@H](Oc1nn(-c2cc(F)ccc2F)c(-c2cncc(F)c2)c1Br)C(=O)O")
90
>>> number("N#CCCOC(=O)COc1nn(-c2ccccc2F)c(-c2ccc(F)nc2)c1Br")
80
>>> number("COC(=O)COc1nn(-c2ccccc2F)c(-c2cncnc2)c1Br")
80
>>> number("CCOC(=O)CN(C)S(=O)(=O)NC(=O)COc1nn(-c2ccccc2F)c(-c2ccc(F)nc2)c1Br")
80

###

Test system: DIGSA
Test: Pre-emergence action against DIGSA, 1280 g/ha
Format: in vivo, Digitaria sanguinalis
Settings: visual scoring after about 3 weeks vs untreated controls, 100% = plants have died, 0% = like control plants
Pre-emergence action against DIGSA values for the molecules below.
Readout name: Pre-emergence action against DIGSA (%)

>>> number("O=C(O)C1CCCN1C(=O)COc1nn(-c2ccccc2F)c(-c2cncc(F)c2)c1Br (stereo not drawn) [Example X-039]")
90
>>> number("CSCCOC(=O)COc1nn(-c2ccccc2F)c(-c2ccc(F)nc2)c1Br [VII-124]")
100
>>> number("CON(C)C(=O)COc1nn(-c2ccccc2F)c(-c2ccc(F)nc2)c1Br [Example X-019]")
100

###

Post-emergence action against LOLRI values for the molecules below.
Test system: LOLRI
Test: Post-emergence action against LOLRI, 1.28 kg/ha
Type: in vivo, Lolium rigidum
Settings: dosage 1280 g/ha, visual rating about 3 weeks after treatment vs untreated controls
Readout name: Post-emergence action against LOLRI (%)

>>> number("O=C(COc1nn(-c2ccccc2F)c(-c2ccc(F)nc2)c1Br)OCCCl [VII-108]")
100
>>> number("O=C(O)COc1nn(-c2ccccc2F)c(-c2ccnc(F)c2)c1Br [VIII-004]")
100
>>> number("CON(C)C(=O)COc1nn(-c2ccccc2F)c(-c2ccc(F)nc2)c1Br [Example X-019]")
90
>>> number("O=C(COc1nn(-c2ccccc2F)c(-c2ccc(F)nc2)c1Br)NO [Example X-023]")
100

###

Test system: ALOMY
Assay: Post-emergence action against ALOMY, 320 g/ha
Type: in vivo, Alopecurus myosuroides
Details: dosage 320 g/ha, visual rating about 3 weeks after treatment vs untreated controls (100% = plants died)
Post-emergence action against ALOMY values for the compounds below.
Readout name: Post-emergence action against ALOMY

>>> result("O=C(O)COc1nn(-c2ccccc2F)c(-c2ccc(F)nc2)c1Br [VII-003]")
"80%"
>>> result("CCOC(=O)COc1nn(-c2ccccc2F)c(-c2cncc(F)c2)c1Br [VII-015]")
"90%"
>>> result("COC(=O)[C@@H](C)Oc1nn(-c2ccccc2F)c(-c2cncnc2)c1Br [VI-011]")
"90%"

Reference source: patent US12180187B2
